These entries and their values trace back to paper PMC3830479.

System tested: OsG6PDH2 (Oryza sativa)
Construct: coding region in pET32 (N-terminal fusion, His-tag), E. coli SoluBL21, HisTrap purified
Sequence (Q7X7I6 1-505): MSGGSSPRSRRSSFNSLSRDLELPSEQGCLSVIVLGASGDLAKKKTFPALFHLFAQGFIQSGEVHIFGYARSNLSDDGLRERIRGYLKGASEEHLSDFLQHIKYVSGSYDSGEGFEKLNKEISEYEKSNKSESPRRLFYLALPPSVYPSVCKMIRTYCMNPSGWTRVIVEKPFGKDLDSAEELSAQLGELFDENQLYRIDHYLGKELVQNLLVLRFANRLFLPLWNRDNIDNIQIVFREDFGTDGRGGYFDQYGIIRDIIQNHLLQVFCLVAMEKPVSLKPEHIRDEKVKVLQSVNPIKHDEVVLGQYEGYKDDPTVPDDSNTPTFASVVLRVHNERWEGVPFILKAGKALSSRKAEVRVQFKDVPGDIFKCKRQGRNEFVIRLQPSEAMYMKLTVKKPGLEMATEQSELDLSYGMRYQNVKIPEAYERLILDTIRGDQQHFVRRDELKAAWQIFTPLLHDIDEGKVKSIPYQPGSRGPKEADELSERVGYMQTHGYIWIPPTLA
Measurement setup: feedback inhibition, G6P/NADP+ assay; inhibitor; read-out: Ki NADPH
Reported endpoint: Ki (µM)

1) NC(=O)C1=CN([C@@H]2O[C@H](COP(=O)(O)OP(=O)(O)OC[C@H]3O[C@@H](n4cnc5c(N)ncnc54)[C@H](OP(=O)(O)O)[C@@H]3O)[C@@H](O)[C@H]2O)C=CC1 [NADPH] | 30
